# SYSTEM_NAME: UniProtKB Q07869
# Sequence (Q07869 239-466 limits assumed): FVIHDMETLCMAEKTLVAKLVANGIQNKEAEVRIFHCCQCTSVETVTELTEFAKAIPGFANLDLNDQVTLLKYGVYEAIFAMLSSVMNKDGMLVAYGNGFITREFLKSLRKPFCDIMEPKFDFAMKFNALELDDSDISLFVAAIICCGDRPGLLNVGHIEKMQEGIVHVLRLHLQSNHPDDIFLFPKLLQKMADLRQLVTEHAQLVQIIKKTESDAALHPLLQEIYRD
# METHOD_DESCRIPTION: Transient transfection (transactivation) assay in CV-1 cells, GAL4-PPAR chimera, luciferase reporter
pEC50: −log10 of the molar value.
Listed here: items and their measured pEC50.

Readout pEC50 for COc1ccccc1N1CCN(S(=O)(=O)c2cccc(CC(=O)O)c2)CC1 [Example 129] , test system UniProtKB Q07869, was < 4.00

Readout pEC50 for Cc1cc(CC(=O)O)cc(S(=O)(=O)N2[C@H](C)CN(c3ccc(OC(F)(F)F)cc3)C[C@@H]2C)c1 [Example 110] , test system UniProtKB Q07869, was 4.00 to 5.30

Readout pEC50 for C[C@@H]1CN(c2ccc(OC(F)(F)F)cc2)C[C@H](C)N1S(=O)(=O)c1ccc(F)c(CC(=O)O)c1F [Example 232] , test system UniProtKB Q07869, was < 4.00

Readout pEC50 for Cc1ccc(CC(=O)O)cc1S(=O)(=O)N1CCN(Cc2ccc(F)cc2)CC1 [Example 154] , test system UniProtKB Q07869, was < 4.00

====

# SYSTEM_NAME: PPAR delta (Homo sapiens)
# Sequence (Q03181 211-439 limits assumed): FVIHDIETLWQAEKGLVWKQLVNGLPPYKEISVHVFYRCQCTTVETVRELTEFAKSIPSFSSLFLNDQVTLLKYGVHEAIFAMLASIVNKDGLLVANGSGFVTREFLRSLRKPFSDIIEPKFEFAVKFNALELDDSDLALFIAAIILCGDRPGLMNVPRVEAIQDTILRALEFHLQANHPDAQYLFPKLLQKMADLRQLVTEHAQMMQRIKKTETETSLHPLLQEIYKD
# METHOD_DESCRIPTION: Transient transfection (transactivation) assay in CV-1 cells, GAL4-PPAR chimera, luciferase reporter
pEC50: −log10 of the molar value.
Listed here: items and their measured pEC50.

compound=COC(=O)[C@H]1CN(c2ccc(C(F)(F)F)cn2)CCN1S(=O)(=O)c1ccc(C)c(CC(=O)O)c1 measurement_name=pEC50 meas_value="> 5.30"

pEC50 for CCC1CN(S(=O)(=O)c2ccc(C)c(CC(=O)O)c2)CCN1c1ccc(C(F)(F)F)cn1 (centres unmarked) is > 5.30

pEC50 for Cc1ccc(CC(=O)O)cc1S(=O)(=O)N1CCN(CCc2ccccc2)CC1 is < 4.00

====

# SYSTEM_NAME: PPAR gamma (Homo sapiens)
# Construct: expressed in transfected cells; host or cells: CV-1 cells
# Sequence (P37231 238-503 limits assumed): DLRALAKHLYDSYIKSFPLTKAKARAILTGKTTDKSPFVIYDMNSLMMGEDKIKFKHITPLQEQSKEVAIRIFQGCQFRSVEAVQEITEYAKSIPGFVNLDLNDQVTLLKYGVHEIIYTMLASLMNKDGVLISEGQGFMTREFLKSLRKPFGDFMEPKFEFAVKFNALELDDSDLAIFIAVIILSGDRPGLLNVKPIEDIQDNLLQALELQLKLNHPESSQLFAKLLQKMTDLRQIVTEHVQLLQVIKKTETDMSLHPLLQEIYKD
# METHOD_DESCRIPTION: Transient transfection (transactivation) assay in CV-1 cells, GAL4-PPAR chimera, luciferase reporter
# Assay type: cell-based
pEC50: −log10 of the molar value.
MEASUREMENT_NAME: pEC50

// known answers, use as guide
entry_smiles=Cc1ccc(S(=O)(=O)N2CCN(c3ccc(F)cc3F)CC2)cc1CC(=O)O measurement_name=pEC50 meas_value="4.00 to 5.30"
entry_smiles=Cc1ccc(S(=O)(=O)N2[C@H](C)CN(c3ccc(Cl)c(Cl)c3)C[C@@H]2C)cc1CC(=O)O measurement_name=pEC50 meas_value="< 4.00"
entry_smiles=COC(=O)[C@@H]1CN(S(=O)(=O)c2ccc(C)c(CC(=O)O)c2)CCN1c1ccc(C(F)(F)F)cn1 measurement_name=pEC50 meas_value="4.00 to 5.30"

pEC50 for Cc1cc(CC(=O)O)cc(S(=O)(=O)N2CCN(c3cccc(Cl)c3)CC2)c1 is 4.00 to 5.30

pEC50 for Cc1ccc(S(=O)(=O)N2CCCN(c3ncc(C(F)(F)F)cc3Cl)CC2)cc1CC(=O)O is > 5.30

pEC50 for C[C@@H]1CN(c2ccc(C(F)(F)F)cn2)C[C@H](C)N1S(=O)(=O)c1cc(CC(=O)O)cc(C(F)(F)F)c1 is < 4.00

pEC50 for O=C(O)Cc1cccc(S(=O)(=O)N2CCC(c3ccc(Cl)cc3)CC2)c1 is < 4.00

pEC50 for Cc1ccc(S(=O)(=O)N2CCN(c3ccc(C(F)(F)F)cn3)C(C)(C)C2)cc1CC(=O)O is > 5.30

pEC50 for Cc1cc(CC(=O)O)cc(S(=O)(=O)N2[C@H](C)CN(c3ccc(C(F)(F)F)c(F)c3)C[C@@H]2C)c1 is < 4.00

pEC50 for O=C(O)Cc1cccc(S(=O)(=O)N2CCN(C/C=C/c3ccccc3)CC2)c1 is < 4.00

pEC50 for O=C(O)Cc1cccc(S(=O)(=O)N2CCN(C(c3ccccc3)c3ccccc3)CC2)c1 is 4.00 to 5.30

pEC50 for O=C(O)Cc1cc(C(F)(F)F)cc(S(=O)(=O)N2CCN(c3ccc(C(F)(F)F)cc3)CC2)c1 is 4.00 to 5.30

pEC50 for Cc1ccc(S(=O)(=O)N2CCN(c3ccc(C(F)(F)F)cc3)CC2)cc1CC(=O)O is 4.00 to 5.30

pEC50 for O=C(O)COc1cccc(S(=O)(=O)N2CCN(c3ccc(C(F)(F)F)cc3)CC2)c1 is < 4.00

pEC50 for O=C(O)Cc1cc(S(=O)(=O)N2CCN(c3ccc(C(F)(F)F)cn3)CC2)ccc1O is 4.00 to 5.30

pEC50 for Cc1ccc(S(=O)(=O)N2CCN(c3ccc(C(C)C)cc3)CC2)cc1CC(=O)O is 4.00 to 5.30

====

# SYSTEM_NAME: PPAR delta (Homo sapiens)
# Sequence (Q03181 211-439 limits assumed): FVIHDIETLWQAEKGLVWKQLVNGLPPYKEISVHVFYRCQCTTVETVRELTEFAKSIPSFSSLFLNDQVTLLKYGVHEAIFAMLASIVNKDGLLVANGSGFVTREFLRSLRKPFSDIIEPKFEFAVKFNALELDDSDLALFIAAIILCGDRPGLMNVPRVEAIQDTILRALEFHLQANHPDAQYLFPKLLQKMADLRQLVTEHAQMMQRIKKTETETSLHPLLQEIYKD
# METHOD_DESCRIPTION: Transient transfection (transactivation) assay in CV-1 cells, GAL4-PPAR chimera, luciferase reporter
pEC50: −log10 of the molar value.
Listed here: items and their measured pEC50.

compound=COc1ccc(N2CCN(S(=O)(=O)c3cc(CC(=O)O)ccc3C)CC2)cc1OC measurement_name=pEC50 meas_value="< 4.00"
compound=O=C(O)Cc1cccc(S(=O)(=O)N2CCN(c3ccccc3Cl)CC2)c1 measurement_name=pEC50 meas_value="< 4.00"
compound=Cc1cc(CC(=O)O)cc(S(=O)(=O)N2[C@H](C)CN(c3ccc(C(F)(F)F)c(Cl)c3)C[C@@H]2C)c1 measurement_name=pEC50 meas_value="> 5.30"
compound=Cc1ccc(S(=O)(=O)N2CCCN(c3ncc(C(F)(F)F)cc3Cl)CC2)cc1CC(=O)O measurement_name=pEC50 meas_value="> 5.30"

pEC50 for Cc1ccc(S(=O)(=O)N2CCN(c3nc(Cl)cs3)CC2)cc1CC(=O)O is 4.00 to 5.30

pEC50 for COc1ccc(N2CCN(S(=O)(=O)c3cc(CC(=O)O)ccc3C)CC2)cc1 is < 4.00

pEC50 for O=C(O)Cc1cccc(S(=O)(=O)N2CCN(c3ccc(C(F)(F)F)cn3)CC2)c1 is > 5.30

pEC50 for Cc1ccc(S(=O)(=O)N2CCN(c3ccc(Cl)c(Cl)c3)C[C@@H]2C)cc1CC(=O)O is > 5.30

pEC50 for Cc1ccc(S(=O)(=O)N2[C@H](C)CN(c3ccc(OC(F)(F)F)cc3)C[C@@H]2C)cc1CC(=O)O is > 5.30

pEC50 for COc1ccc(CC(=O)O)cc1S(=O)(=O)N1CCN(c2ccc(C(F)(F)F)cn2)CC1C (centres unmarked) is 4.00 to 5.30

pEC50 for O=C(O)Cc1cccc(S(=O)(=O)N2CCN(C(c3ccccc3)c3ccccc3)CC2)c1 is < 4.00

pEC50 for C[C@@H]1CN(c2ccc(OC(F)(F)F)cc2)C[C@H](C)N1S(=O)(=O)c1ccc(O)c(CCC(=O)O)c1 is 4.00 to 5.30

pEC50 for Cc1cc(CC(=O)O)cc(S(=O)(=O)N2CCN(c3ccc(OC(F)(F)F)cc3)C[C@@H]2C)c1 is > 5.30

pEC50 for Cc1ccc(S(=O)(=O)N2CCN(c3ccc(C(C)C)cc3)CC2)cc1CC(=O)O is > 5.30

pEC50 for Cc1ccc(S(=O)(=O)N2CCN(c3ccc(OC(F)(F)F)cc3)C[C@@H]2C)cc1CC(=O)O is > 5.30

pEC50 for Cc1ccc(S(=O)(=O)N2CCN(c3ccc(C(F)(F)F)cn3)C(C(F)(F)F)C2)cc1CC(=O)O (centres unmarked) is > 5.30

pEC50 for Cc1cc(CC(=O)O)cc(S(=O)(=O)N2CCC(c3ccc(Cl)cc3)CC2)c1 is 4.00 to 5.30

pEC50 for Cc1ccc(S(=O)(=O)N2CCCN(c3ccc(C(F)(F)F)cc3)CC2)cc1CC(=O)O is > 5.30

pEC50 for C[C@@H]1CN(c2ccc(OC(F)(F)F)cc2)C[C@H](C)N1S(=O)(=O)c1cc(CC(=O)O)cc(C(F)(F)F)c1 is > 5.30

pEC50 for O=C(O)Cc1cccc(S(=O)(=O)N2CCN(C/C=C/c3ccccc3)CC2)c1 is 4.00 to 5.30

pEC50 for Cc1ccc(C)c(N2CCN(S(=O)(=O)c3cccc(CC(=O)O)c3)CC2)c1 is 4.00 to 5.30

pEC50 for Cc1ccc(S(=O)(=O)N2CCN(c3ccc(C(C)(C)C)cc3)CC2)cc1CC(=O)O is 4.00 to 5.30
